Biological target: UniProt P0C6X7
Test: biochemical
Format: biochemical
Details: 10 µM
Binary call on inhibition of SARS-CoV PLpro: t from 80% upward, f beneath that.

{"chemical_string": "C1=CCCC=CCC1.Cn1[c-][n+](C)c(-c2ccc(F)cc2)c1.[Br-].[Rh+]", "class_name": "t"}
{"chemical_string": "CCn1cc(-c2ccccc2)[n+](CC)[c]1[Au-][c]1n(CC)cc(-c2ccccc2)[n+]1CC.[I-]", "class_name": "f"}
{"chemical_string": "C1=CCCC=CCC1.CCn1[c-][n+](CC)c(-c2ccccc2)c1.[Cl-].[Rh+]", "class_name": "f"}
{"chemical_string": "Cn1[c]([Au-][c]2n(C)c3ccccc3[n+]2C)[n+](C)c2ccccc21.[I-]", "class_name": "f"}
{"chemical_string": "C1=CCCC=CCC1.CCn1[c-][n+](CC)c(-c2ccc(F)cc2)c1.[Br-].[Rh+]", "class_name": "f"}
{"chemical_string": "C1=CCCC=CCC1.Cn1[c-][n+](C)c(-c2ccccc2)c1.[Br-].[Rh+]", "class_name": "t"}
{"chemical_string": "Cc1ccc(C(C)C)cc1.Cc1ccc2c(c1)[n+](Cc1ccccc1)[c-]n2Cc1ccccc1.[Br-].[Br-].[Ru+2]", "class_name": "f"}

###

Molecular target: interaction of the RBD of the SARS‐CoV‐2 S protein with the ACE2 receptor (Severe acute respiratory syndrome coronavirus 2)
Format: binding
Settings: 20 µM
Measured inhibition of the S/ACE2 interaction values are reported for all entries that follow.
value_type: inhibition of the S/ACE2 interaction (%)

{"molecule": "C1=CCCC=CCC1.Cn1[c-][n+](C)c(-c2ccc(F)cc2)c1.[Br-].[Rh+]", "value_type": "inhibition of the S/ACE2 interaction", "endpoint_unit": "%", "measured_result": 14}
{"molecule": "C1=CCCC=CCC1.CCn1[c-][n+](CC)c(-c2ccccc2)c1.[Cl-].[Rh+]", "value_type": "inhibition of the S/ACE2 interaction", "endpoint_unit": "%", "measured_result": 0}
{"molecule": "CCP(CC)CC.[Au+].[Cl-] [Au‐3, (triethylphosphine)AuCl, reference compound]", "value_type": "inhibition of the S/ACE2 interaction", "endpoint_unit": "%", "measured_result": 24}
{"molecule": "C1=CCCC=CCC1.Cn1[c-][n+](C)c(-c2ccccc2)c1.[Cl-].[Rh+]", "value_type": "inhibition of the S/ACE2 interaction", "endpoint_unit": "%", "measured_result": 12}
{"molecule": "CCn1[c]([Au-][Cl])[n+](CC)c2cc(C(=O)OC)ccc21", "value_type": "inhibition of the S/ACE2 interaction", "endpoint_unit": "%", "measured_result": 19}
{"molecule": "C1=CCCC=CCC1.CCn1[c-][n+](CC)c(-c2ccccc2)c1.[I-].[Rh+]", "value_type": "inhibition of the S/ACE2 interaction", "endpoint_unit": "%", "measured_result": 0}
{"molecule": "C[CH2][Hg][S]c1ccccc1C(=O)[O-].[Na+] [Hg‐1, thiomersal, reference compound]", "value_type": "inhibition of the S/ACE2 interaction", "endpoint_unit": "%", "measured_result": 7}
{"molecule": "C1=CCCC=CCC1.CCn1[c-][n+](CC)c(-c2ccc(F)cc2)c1.[I-].[Rh+]", "value_type": "inhibition of the S/ACE2 interaction", "endpoint_unit": "%", "measured_result": 22}
{"molecule": "O=[N+]([O-])[O-].[Ag+] [Ag‐1, silver nitrate, reference compound]", "value_type": "inhibition of the S/ACE2 interaction", "endpoint_unit": "%", "measured_result": 6}
{"molecule": "[Cl][Au-][c]1n(Cc2ccccc2)cc(-c2ccccc2)[n+]1Cc1ccccc1", "value_type": "inhibition of the S/ACE2 interaction", "endpoint_unit": "%", "measured_result": 9}
{"molecule": "Cc1ccc(C(C)C)cc1.Cc1ccc2c(c1)[n+](Cc1ccccc1)[c-]n2Cc1ccccc1.[Br-].[Br-].[Ru+2]", "value_type": "inhibition of the S/ACE2 interaction", "endpoint_unit": "%", "measured_result": 0}
{"molecule": "O=C(NC1C(O)OC(CO)C(O)C1O)C1CCN(C(=S)[S][Au][PH](c2ccccc2)(c2ccccc2)c2ccccc2)CC1 (mixture of isomers)", "value_type": "inhibition of the S/ACE2 interaction", "endpoint_unit": "%", "measured_result": 0}
{"molecule": "C1=CCCC=CCC1.Cn1[c-][n+](C)c(-c2ccccc2)c1.[Br-].[Rh+]", "value_type": "inhibition of the S/ACE2 interaction", "endpoint_unit": "%", "measured_result": 17}
{"molecule": "C1=CCCC=CCC1.CCn1[c-][n+](CC)c(-c2ccc(F)cc2)c1.[Br-].[Rh+]", "value_type": "inhibition of the S/ACE2 interaction", "endpoint_unit": "%", "measured_result": 5}
{"molecule": "[Cl-].[Cl-].[Ti+4].c1cc[cH-]c1.c1cc[cH-]c1 [Ti‐1, titanocene dichloride, reference compound]", "value_type": "inhibition of the S/ACE2 interaction", "endpoint_unit": "%", "measured_result": 69}
{"molecule": "CC(=O)OC[C@H]1O[C@@H]([S-])[C@H](OC(C)=O)[C@@H](OC(C)=O)[C@@H]1OC(C)=O.CCP(CC)CC.[Au+] [Au‐1, auranofin, reference compound]", "value_type": "inhibition of the S/ACE2 interaction", "endpoint_unit": "%", "measured_result": 20}
{"molecule": "CC[n+]1[c-]n(CC2(c3ccc(Cl)cc3Cl)OCC(COc3ccc(N4CCN(C(C)=O)CC4)cc3)O2)cc1.[Au+].[Cl-] (centres unmarked)", "value_type": "inhibition of the S/ACE2 interaction", "endpoint_unit": "%", "measured_result": 16}
{"molecule": "Cc1cn(C/C=C/[c-]2cccc2)c(=O)[nH]c1=O.Cc1cn(C/C=C/[c-]2cccc2)c(=O)[nH]c1=O.[Fe+2]", "value_type": "inhibition of the S/ACE2 interaction", "endpoint_unit": "%", "measured_result": 28}
{"molecule": "CC(C)n1cc(-c2ccccc2)[n+](C(C)C)[c]1[Au-][c]1n(C(C)C)c(-c2ccccc2)c[n+]1C(C)C.[I-]", "value_type": "inhibition of the S/ACE2 interaction", "endpoint_unit": "%", "measured_result": 8}
{"molecule": "Cn1[c]([Au-][c]2n(C)c3ccccc3[n+]2C)[n+](C)c2ccccc21.[I-]", "value_type": "inhibition of the S/ACE2 interaction", "endpoint_unit": "%", "measured_result": 22}

###

Measured inhibition of the S/ACE2 interaction values are reported for all entries that follow.
Target: interaction of the RBD of the SARS‐CoV‐2 S protein with the ACE2 receptor (Severe acute respiratory syndrome coronavirus 2, UniProt P0DTC2)
Assay type: binding
Conditions: 20 µM

{"compound": "CC(C)n1[c]([Au-][c]2n(C(C)C)c3ccccc3[n+]2C(C)C)[n+](C(C)C)c2ccccc21.[Br-]", "inhibition of the S/ACE2 interaction": "23%"}
{"compound": "Cn1cc(-c2ccccc2)n(C)[c]1=[Au][Cl]", "inhibition of the S/ACE2 interaction": "17%"}
{"compound": "[Cl][Ti]([Cl])([Cl])[Cl] [Ti‐2, titanium(IV) tetrachloride, reference compound]", "inhibition of the S/ACE2 interaction": "0%"}
{"compound": "COc1ccc(C#[C][Au-][c]2n(C)c3ccccc3[n+]2C)cc1", "inhibition of the S/ACE2 interaction": "16%"}
